system: CCRF-CEM leukemia; assay: NCI tumour cell line growth inhibition, 48 h

Molecule	TGI
COc1ccc(CSC2=C(C#N)C(=O)NC3(CCCCC3)S2)cc1	24.7 µM
Nc1c(C(=O)c2cccc(C(O)CO)c2)cnn1-c1ccc(F)cc1 (stereo unspecified)	> 25 µM
COC(=O)CCC(=O)NC1=C(Nc2ccccc2)C(=O)c2ccccc2C1=O	42.9 µM
Cn1c2ccc(Cl)cc2c2ccc3c(c21)C(=O)C=CC3=O	> 10 µM
Cc1cc(=O)[nH]c(NNC(C#N)c2ccccc2O)n1 (stereo unspecified)	> 100 µM
COc1cc2nc(N3CCC[C@H](NC4=CC(=O)c5ccccc5C4=O)C3)nc(N)c2cc1OC	5.45 µM

---

system: UO-31 renal; assay: NCI tumour cell line growth inhibition, 48 h
Experimental endpoint: log10 of TGI (log10 of the value in µM)

Molecule	log10 of TGI
Cc1ccc(S(=O)(=O)n2cc([C@@]3(O)C[C@H](CSC#N)OC3=O)c3ccccc32)cc1	1.29
COc1cc2nc(N3CCC[C@H](NC4=CC(=O)c5ccccc5C4=O)C3)nc(N)c2cc1OC	0.50
O=C1Nc2cccc(Cl)c2/C1=C\c1c(-c2ccccc2)nc2n1CCS2	1.69
CCN(CC)CCCNCc1cc(-c2ccccc2)nc2cc(Cl)ccc12	1.06
O=C1NC(=O)C(=Cc2cn(Cc3ccccc3)c3ccccc23)C(=O)N1	1.49
CCOC(=O)c1cc2c3c(c(C(C)=O)c(OC)c2[nH]1)N(C(=O)CC)CC3	1.43
O=C1CC(c2cccc(Cl)c2)Oc2ccccc21 (stereo unspecified)	1.44

---

Entries and their TGI values follow.
test system: HCC-2998 colon; assay: NCI tumour cell line growth inhibition, 48 h

Compound	Target entity	TGI
CCOC(=O)c1sc2c(C(=O)OCC)n3cc(C)cc(C)c3c2c1O	HCC-2998 colon	> 100 µM
CCN(CC)CCCNCc1cc(-c2ccccc2)nc2cc(Cl)ccc12	HCC-2998 colon	3.89 µM
CN1CCN(C(=O)c2ccc(NC(=O)Nc3ccc(-c4nc(N5CCOCC5)c5cccn5n4)cc3)cc2)CC1	HCC-2998 colon	11.8 µM
COc1c(C)c(C/C=C(\C)CCCC(C)CCCC(C)CCCC(C)C)c(OC)c2ccccc12 (stereo unspecified)	HCC-2998 colon	> 100 µM
COC(=O)/C(C#N)=C1\CCC(OC)N1C (stereo unspecified)	HCC-2998 colon	> 100 µM
c1ccc2c[n+](CCCC[n+]3ccc4ccccc4c3)ccc2c1	HCC-2998 colon	> 100 µM
COc1cccc(NC(=O)CC(=O)n2nc(-c3ccccc3)c(N=Nc3ccc(Cl)cc3)c2-c2ccccc2)c1	HCC-2998 colon	64.5 µM
Cc1ccc(N2C(=O)C3CSCN3C2=O)cc1 (stereo unspecified)	HCC-2998 colon	> 100 µM
CC(=O)/C=C/c1ccccc1	HCC-2998 colon	> 100 µM
CCOC(=O)c1c(N2CCCC2)[nH]c(=O)c(C(c2ccc(N(C)C)cc2)c2c(O)c(C(=O)OCC)c(N3CCCC3)[nH]c2=O)c1O	HCC-2998 colon	> 100 µM
CCOC(=O)c1cc2c3c(c(C(C)=O)c(OC)c2[nH]1)N(C(=O)CC)CC3	HCC-2998 colon	76.5 µM
Brc1cc(C2OCCCO2)ccc1OCc1ccccc1	HCC-2998 colon	> 100 µM
CCCCCCC(=O)C/C(CCC(=O)N(Cc1ccccc1)Cc1ccccc1)=N\NC(N)=O	HCC-2998 colon	> 100 µM
O=c1cc(-c2ccccc2)oc2c1ccc1[nH]c3ccccc3c(=O)c12	HCC-2998 colon	> 100 µM
FC(F)c1ncc(-c2ccc(C(F)(F)F)cc2)c(NC2CCCCCC2)n1	HCC-2998 colon	> 10 µM
Cc1nc2ccc(Br)cc2c(=O)n1-c1ccc(N)cc1	HCC-2998 colon	> 100 µM
COc1ccc(CSC2=C(C#N)C(=O)NC3(CCCCC3)S2)cc1	HCC-2998 colon	62.4 µM
COc1cc(S(=O)(=O)Nc2nc(-c3ccc(N4C(=O)C(C)SC4c4ccccc4O)cc3)cs2)ccc1Cl (stereo unspecified)	HCC-2998 colon	> 100 µM
O=C1Nc2cccc(Cl)c2/C1=C\c1c(-c2ccccc2)nc2n1CCS2	HCC-2998 colon	46.7 µM
CC(C)(C)c1ccc(C2CC(=O)C3=C(C2)Nc2ccccc2N(C(=O)c2ccccc2Cl)C3c2ccc(F)cc2)cc1 (stereo unspecified)	HCC-2998 colon	> 100 µM
Cc1ccc(S(=O)(=O)OCCC2CN(C(=O)OCc3ccccc3)C(C)(C)O2)cc1 (stereo unspecified)	HCC-2998 colon	72.7 µM

The origin of these recorded values is PubChem BioAssay (NCI).
